target: T1, human MHC class II DR protein (DRA*0101/DRB1*0401), purified from PRIESS cells (human, UniProt P01903 26-254; P01911 30-266, limits assumed); assay: SPR (BIAcore), MHCII on CM5 chip
T1 construct: mature; also called HLA-DR protein; MHCII
T1 MHC II alpha: not shown
T1 MHC II beta: not shown
MEASURED_QUANTITY: kon (M⁻¹ s⁻¹)
Reply numerically in M⁻¹ s⁻¹, unit not repeated.

Sample records with kon:
- MS-GPC-8-27-41 Fab (Fab, V domains shown, Fab: VH-CH1 with FLAG tag and STREP tag II, VL-CL; VH residue 1 is Q in Fab; also called 1D09C3) VH: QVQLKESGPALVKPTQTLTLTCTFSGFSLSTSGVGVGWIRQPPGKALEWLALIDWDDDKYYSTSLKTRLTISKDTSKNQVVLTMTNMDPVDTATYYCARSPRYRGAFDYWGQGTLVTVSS VL: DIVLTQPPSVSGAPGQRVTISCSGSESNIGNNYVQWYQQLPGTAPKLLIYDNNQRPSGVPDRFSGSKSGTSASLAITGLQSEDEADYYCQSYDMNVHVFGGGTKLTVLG: 170000
- MS-GPC-8-27-10 Fab (Fab, V domains shown, Fab: VH-CH1 with FLAG tag and STREP tag II, VL-CL; VH residue 1 is Q in Fab) VH: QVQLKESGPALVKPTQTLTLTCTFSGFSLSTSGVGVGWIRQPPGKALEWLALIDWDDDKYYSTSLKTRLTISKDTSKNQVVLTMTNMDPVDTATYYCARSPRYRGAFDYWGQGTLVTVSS VL: DIVLTQPPSVSGAPGQRVTISCSGSESNIGANYVNWYQQLPGTAPKLLIYDNNQRPSGVPDRFSGSKSGTSASLAITGLQSEDEADYYCQSYDMNVHVFGGGTKLTVLG: 180000

We now examine a further binder.
Input: Entry under review: MS-GPC-8-6-27 Fab (Fab, V domains shown, Fab: VH-CH1 with FLAG tag and STREP tag II, VL-CL; VH residue 1 is Q in Fab) VH: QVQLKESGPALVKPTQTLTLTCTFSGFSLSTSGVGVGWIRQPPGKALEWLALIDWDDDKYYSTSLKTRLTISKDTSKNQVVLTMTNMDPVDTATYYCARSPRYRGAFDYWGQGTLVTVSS VL: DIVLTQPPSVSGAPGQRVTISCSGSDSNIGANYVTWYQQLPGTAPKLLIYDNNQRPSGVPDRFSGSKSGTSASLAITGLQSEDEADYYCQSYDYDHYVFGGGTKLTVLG . Reported kon?
Output: 180000
